Reported protein stability index is given for each of the following variants.
B1: TRIM15 (parent)
chain: LLARLRELEQQIWKERDEYITKVS

# Variants of: B1
# method-notes: protein stability index of a GFP-peptide fusion (GPS, HEK-293T) (PSI 1-6); higher = more stable;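 also: lentivirally expressed fusions sorted by FACS into six bins by GFP to DsRed ratio, PSI derived from sequencing read proportions per bin multiplied by bin number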
# measurement-setup: c terminus: a fixed tail appended
// return just the number, without any unit appended

Consider LLARLQELEQQIWKERDEYITKVS [R6Q] . Its measured protein stability index is 1.44

Consider LDARLRELEQQIWKERDEYITKVS [L2D] . Its measured protein stability index is 2.55

Consider DLARLRELEQQIWKERDEYITKVS [L1D] . Its measured protein stability index is 2.31

Consider LLARLRELEQQISKERDEYITKVS [W13S] . Its measured protein stability index is 1.68

Consider LLARLRELEQWIWKERDEYITKVS [Q11W] . Its measured protein stability index is 1.08

Consider LLARLREVEQQIWKERDEYITKVS [L8V] . Its measured protein stability index is 1.69

Consider LLARLRELEQQIWKERDEYITKVT [S24T] . Its measured protein stability index is 1.31
